Where these numbers come from: PubChem BioAssay (NCI)

Tested on: HCT-15 colon
TEST METHOD NOTES: NCI tumour cell line growth inhibition, 48 h; in the data active means GI50 below about 0.43 µM; inactive means the rest
Please answer using one outcome listed in y (active), n (inactive)

Worked cases, answers included:
{"columns": ["MOLECULE", "DISCRETE LABEL"],
 "data": [
  ["CC(=O)Nc1ccc(-c2csc(Nc3cccc(-c4csc(-c5ccccc5)n4)c3)n2)cc1", "n"],
  ["C=C(C)[C@@H]1CC[C@]2(C(=O)O)CC[C@]3(C)[C@H](CC[C@@H]4[C@@]5(C)C/C(=C/c6cccc(I)c6)C(=O)C(C)(C)[C@@H]5CC[C@]43C)[C@@H]12", "n"],
  ["Fc1cccc(Cl)c1Cn1c(-c2c(F)cccc2Cl)nc2ccccc21", "n"],
  ["CCCCCCCCCCCC1=NC(C)(C)CN1CC(C)O (configuration not stated)", "n"],
  ["Cc1ccc2nc3c(n2c1)C(=O)C(=O)c1ccccc1-3", "y"],
  ["COc1cnc2c(c1)C(=O)c1c-2n(CCCNCCN2CCOCC2)c(=O)c2cc([N+](=O)[O-])ccc12", "y"]
]}

Now, please, on to the next molecule.
Task: Answer briefly: the call reported for COc1ccc(-c2nnc(SCC(=O)Nc3ccc(C(=O)/C=C/c4cc(OC)c(OC)c(OC)c4)cc3)n2-c2ccccc2)cc1OC in this assay.
Result: n

====

System: SK-MEL-2 melanoma
TEST METHOD NOTES: NCI tumour cell line growth inhibition, 48 h
Could you please report measured TGI for the items listed next?

Check out these entries, answers already filled in.
{"columns": ["MOLECULE", "TGI"],
 "data": [
  ["O=C1/C(=C/c2ccc(Cl)cc2)CN(C(=O)CCN2CCC(=NO)CC2)C/C1=C\\c1ccc(Cl)cc1", "3.92 µM"],
  ["CC(=O)N1C(Nc2cccc3nc(C)ccc23)CCN1c1ccccc1 (configuration not stated)", "> 10 µM"],
  ["O=C(c1ccccc1)c1c(C(F)(F)F)n([O-])c2cc(F)c(F)cc2[n+]1=O", "4.44 µM"],
  ["O=C1NC(=O)[C@@H](c2c[nH]c3ccccc23)[C@@H]1c1c[nH]c2ccccc12", "> 25 µM"],
  ["CN1C=COC1N=C1CCCCC1 (configuration not stated)", "> 100 µM"]
]}

List the reported TGI of each molecule below.
1. C[N+](C)(C)CC(=O)N/N=C(/Cc1nc2ccc([N+](=O)[O-])cc2[nH]c1=O)C(=O)Nc1cc(C(F)(F)F)ccc1Cl
2. O=c1ccn(C2(CO)C=C(CO)C(O)C2O)c(=O)[nH]1 (configuration not stated)
3. NC(=O)c1sc(-n2cnc3ccc(C(F)(F)F)cc32)cc1OCc1ccccc1Br
4. O=C1CC(c2ccsc2)c2snc(-c3ccc(Cl)cc3)c2N1 (configuration not stated)
5. O=C(/C=C/c1ccccc1O)c1cccc2ccccc12

Result:
> 100 µM
> 25.7 µM
11.3 µM
> 100 µM
> 100 µM

For each of the items listed, what is its TGI?
1. COc1ccc(C2=NNC(c3cc4cc(Br)ccc4nc3Cl)C2)cc1 (configuration not stated)
2. CCC(=O)N1C(=O)C(CC)(CC)C(=O)N1C(=O)CC
3. CN(C)C=NCC(O)c1ccccc1 (configuration not stated)
4. CCCCCCCCNC(C)C(O)c1ccc(SC(C)C)cc1 (configuration not stated)
5. CC(C)(C)OC(=O)n1c(Cl)c(C=O)c2ccccc21
6. COc1ccc2c(c1)[nH]c(=O)c1c3cc(OC)c(OC)cc3cn21
7. O=S1c2ccccc2NC(c2ccc3ccccc3c2)CC1c1ccccc1 (configuration not stated)

Result:
1. > 25 µM
2. > 100 µM
3. > 100 µM
4. 3.74 µM
5. 96.4 µM
6. 20.8 µM
7. > 100 µM

For each of the molecules below, state TGI.
1. O=C(CSCC(=O)N/N=C\c1ccccc1F)N/N=C\c1ccccc1F
2. COc1ccc(N2C(=O)C3c4[nH]c5ccccc5c4C4c5ccccc5CC4C3C2=O)cc1 (configuration not stated)
3. OCCn1cc(-c2cnc3nnn(Cc4ccc5ncccc5c4)c3n2)cn1
4. Cc1cn([C@@H]2C[C@H](CO)[C@@H]2O)c(=O)[nH]c1=O

Result:
1. > 100 µM
2. > 100 µM
3. > 100 µM
4. > 100 µM

Task: # lookup: TGI of Nc1c(C(=O)NC23CC4CC(CC(C4)C2)C3)[n+]([O-])c2ccccc2[n+]1[O-]
Result: > 100 µM

====

Tested on: ACHN renal
TEST METHOD NOTES: NCI tumour cell line growth inhibition, 48 h
VALUE KIND: GI50

Known GI50 results, listed for orientation:
{"columns": ["INPUT SMILES", "MEAS VALUE"],
 "data": [
  ["O=C(Cc1csc2nc(-c3ccc(Br)cc3)cn12)N/N=C/c1ccc(Cl)cc1Cl", "22.6 µM"],
  ["CCCCCCCCCCC[C@@H](C[C@H]1OC(=O)[C@H]1CCCCCC)OC(=O)[C@@H](CC(C)C)NC=O", "8.63 µM"],
  ["Cc1cc(NCc2cc(Nc3ccnc4cc(Cl)ccc34)ccc2F)nc(N2CCSCC2)n1", "1.7 µM"],
  ["COc1ccc(/C=N\\NC(=O)c2ccc3nc(-c4ccc(Cl)cc4)[nH]c3c2)cc1", "2 µM"],
  ["O=C(NO)c1ccc(Cn2c(=O)n(-c3ccccc3)c(=O)c3ccccc32)cc1", "1.67 µM"],
  ["CC[C@H](C)[C@H](NC(=O)NC(C)(C)C)C(=O)N(C)[C@H](C[C@@H](OC(C)=O)c1nc(C(=O)N[C@@H](Cc2ccccc2)C[C@H](C)C(=O)OC)cs1)C(C)C", "1.15 µM"],
  ["CNC(=O)c1cc(Oc2ccc3nc(N[C@@H]4CCCC[C@H]4O)sc3c2)ccn1", "55.8 µM"]
]}

Moving on to the next compound.
Task: Which GI50 reading was recorded for the compound COc1ccc(-c2nc(-c3ccccn3)c(-c3ccccn3)n2CC(C)C)cc1OC1CCCC1 ?
Result: 6.92 µM

====

Exercise: state measured TGI for each of the compounds provided.
System: MALME-3M melanoma
TEST METHOD NOTES: NCI tumour cell line growth inhibition, 48 h

Return reported TGI values for all items listed beneath this line.
1. Nc1nc(-c2ccc(Cl)cc2)cc(-c2ccc(Cl)cc2)c1-c1nc2ccccc2o1
2. CO[C@]12CC(=O)C3(C(C[C@H]4CC5CC[C@H]6C[C@@H](OC(C)=O)CC[C@]6(OC(C)=O)C5C[C@@]43C)C1)C1C[C@H]3[C@@H]4CC[C@H]5C[C@@H](OC(C)=O)CC[C@]5(OC(C)=O)[C@H]4CC[C@]3(C)C12 (stereo partly specified)

Result:
1. 29.9 µM
2. > 100 µM

====

System: SF-295 CNS
TEST METHOD NOTES: NCI tumour cell line growth inhibition, 48 h; in the data active means GI50 below about 0.43 µM; inactive means the rest
In this exercise, the only acceptable responses are Yes for active, No for inactive

{"columns": ["INPUT SMILES", "DISCRETE LABEL"],
 "data": [
  ["Fc1cccc(Cl)c1Cn1c(-c2c(F)cccc2Cl)nc2ccccc21", "No"],
  ["Clc1ccc2nc(Cl)c3ccccc3c2c1", "No"]
]}

Task: Query: recorded result category for O=C(Nc1ccc(Nc2ccncc2)cc1)c1ccc(Nc2ccnc3ccc([N+](=O)[O-])cc23)cc1[N+](=O)[O-] in this test
Result: No

Task: Dear all, I need the recorded test outcome for CCSc1ccc([C@@H]2[C@@H](N)C(=O)N2c2cc(OC)c(OC)c(OC)c2)cc1 , thank you.
Result: Yes

Task: Which outcome was assigned to CNC(=O)c1cc(Oc2ccc3nc(N[C@@H]4CCCC[C@H]4O)sc3c2)ccn1 in this test?
Result: No

Task: Which outcome did this test record for the compound COc1cc(/C(=C2/O[C@@H]([C@H]3COC(C)(C)O3)[C@H]3OC(C)(C)O[C@@H]23)c2ccc3c(c2)OCO3)cc(OC)c1OC ?
Result: No

Task: Identify the outcome logged in this assay for the compound shown: Oc1ccc(Oc2cnc3cc(Cl)ccc3n2)cc1
Result: No

Task: Please share the test call associated with O=C(Nc1ccc(Oc2ccc(NC(=O)Nc3ccc([N+](=O)[O-])cc3)cc2)cc1)Nc1ccc([N+](=O)[O-])cc1 .
Result: No

Task: // param item: O=C1/C(=C/c2ccc(Cl)cc2)CN(C(=O)CCN2CCC(=NO)CC2)C/C1=C\c1ccc(Cl)cc1 ; yields the recorded call
Result: No

Task: What classification did NC(=O)c1sc(-n2cnc3ccc(C(F)(F)F)cc32)cc1OCc1ccccc1Br end up with in this test?
Result: No

Task: Which outcome did this test record for the compound CC[C@H](C)[C@H](NC(=O)NC(C)(C)C)C(=O)N(C)[C@H](C[C@@H](OC(C)=O)c1nc(C(=O)N[C@@H](Cc2ccccc2)C[C@H](C)C(=O)OC)cs1)C(C)C ?
Result: No

Task: Write down the call the test reported for this compound. Item: CC(=O)Nc1ccc(-c2csc(Nc3cccc(-c4csc(-c5ccccc5)n4)c3)n2)cc1
Result: No

Task: For this compound, state the assay outcome: COc1ccc2c(c1)[nH]c(=O)c1c3cc(OC)c(OC)cc3cn21
Result: Yes
